The measured values listed here are drawn from patent US9512107B2.

- system-tested: IDH2 R172K (Homo sapiens, UniProt P48735, R172K)
- Sequence (P48735 40-452 R172K): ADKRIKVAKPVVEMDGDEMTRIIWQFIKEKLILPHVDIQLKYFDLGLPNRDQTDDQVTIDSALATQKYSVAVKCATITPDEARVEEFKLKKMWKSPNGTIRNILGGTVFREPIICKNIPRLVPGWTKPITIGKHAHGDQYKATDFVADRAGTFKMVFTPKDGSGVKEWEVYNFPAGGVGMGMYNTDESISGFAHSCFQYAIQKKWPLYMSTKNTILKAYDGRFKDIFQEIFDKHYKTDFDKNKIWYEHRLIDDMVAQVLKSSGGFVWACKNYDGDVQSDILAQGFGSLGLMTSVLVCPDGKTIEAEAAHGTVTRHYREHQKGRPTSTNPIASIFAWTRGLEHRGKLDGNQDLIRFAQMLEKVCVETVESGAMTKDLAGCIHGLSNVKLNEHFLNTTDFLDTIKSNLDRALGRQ
- protocol-text: IDH2 R172K enzymatic assay (NADPH cofactor depletion, diaphorase/resazurin readout)
- condition-details: read-out: Enz R172K
property-label: IC50

>>> test_value("CC(C)Nc1nc(Nc2cc(F)cc(S(C)(=O)=O)c2)nc(-c2cccc(C(F)(F)F)n2)n1")
"< 100 nM"
>>> test_value("CC(C)(O)CNc1nc(Nc2cncc(F)c2)nc(-c2ccccc2F)n1")
"1000 to 10000 nM"
>>> test_value("CC(C)Nc1nc(Nc2ccnc(C(F)(F)F)c2)nc(-c2ccccc2)n1")
"< 100 nM"
>>> test_value("CC(C)(C)C(=O)Nc1nc(Nc2ccccc2)nc(-c2ccccc2)n1")
"100 to 1000 nM"
>>> test_value("CNc1cccc(-c2nc(Nc3cc(F)cc(F)c3)nc(NC(C)C)n2)n1")
"< 100 nM"

* * *

Below, each entry is listed with its recorded IC50.
- Test system: U87MG pLVX-IDH2 R140Q-neo cells
- protocol-text: U87MG pLVX-IDH2 R140Q-neo cell based assay, 2-HG in media by LC-MS at 48 hours
- condition-details: Homo sapiens, U-87 MG
property-label: IC50

>>> test_value("CC(C)Nc1nc(Nc2cccc(S(C)(=O)=O)c2)nc(-c2cccc(C3CC3)n2)n1 [Compound 397]")
"100 to 1000 nM"
>>> test_value("CC(C)(C)CNc1nc(Nc2ccnc(C(F)(F)F)c2)nc(-c2ccccn2)n1 [Compound 517]")
"< 100 nM"
>>> test_value("CC(C)(O)CNc1nc(Nc2cncc(F)c2)nc(-c2ccccc2F)n1 [Compound 621]")
"100 to 1000 nM"
>>> test_value("Fc1cc(Nc2nc(NC3COC3)nc(-c3ccccc3F)n2)ccn1 [Compound 628]")
"< 100 nM"
>>> test_value("CC(C)Nc1nc(Nc2cncc(F)c2)nc(-c2cccc(C(F)(F)F)n2)n1 [Compound 503]")
"< 100 nM"
>>> test_value("CC(C)(O)CNc1nc(Nc2ccccc2)nc(-c2ccccc2)n1 [Compound 203]")
"100 to 1000 nM"
>>> test_value("CNc1cccc(-c2nc(Nc3ccccc3)nc(NC(C)C)n2)n1 [Compound 331]")
"< 100 nM"
>>> test_value("CC(C)CCNc1nc(Nc2ccncc2)nc(-c2ccccc2)n1 [Compound 212]")
"< 100 nM"
>>> test_value("CC(C)Nc1nc(Nc2cnoc2)nc(-c2ccccc2)n1 [Compound 309]")
"< 100 nM"
>>> test_value("CS(=O)(=O)c1cc(F)cc(Nc2nc(NCC3CC3)nc(-c3cccc(C(F)(F)F)n3)n2)c1 [Compound 593]")
"< 100 nM"
>>> test_value("CC(C)Nc1nc(Nc2ccnc(C(F)(F)F)c2)nc(-c2cccc(S(C)(=O)=O)c2)n1 [Compound 657]")
"< 100 nM"
>>> test_value("CC(C)Nc1nc(Nc2cccc(S(=O)(=O)NCC(F)(F)F)c2)nc(-c2cccc(C(F)(F)F)n2)n1 [Compound 519]")
"< 100 nM"
>>> test_value("CC(C)(O)CNc1nc(Nc2cncc(C(F)(F)F)c2)nc(-c2cccc(Cl)n2)n1 [Compound 367]")
"< 100 nM"
>>> test_value("CC(C)Nc1nc(Nc2cncc(F)c2)nc(-c2ccccc2)n1 [Compound 193]")
"< 100 nM"
>>> test_value("CC(C)Nc1nc(Nc2cccc(S(C)(=O)=O)c2)nc(-c2cccc(C(F)(F)F)n2)n1 [Compound 358]")
"< 100 nM"
>>> test_value("CC(C)(C)Nc1nc(Nc2cc(F)cc(F)c2)nc(-c2cccc(C(F)(F)F)n2)n1 [Compound 601]")
"< 100 nM"
>>> test_value("CC(C)Nc1nc(Nc2ccnc(F)c2)nc(-c2ccccc2F)n1 [Compound 371]")
"< 100 nM"
>>> test_value("CC(C)(C)CNc1nc(Nc2cncnc2)nc(-c2cccc(C(F)(F)F)n2)n1 [Compound 521]")
"< 100 nM"
